// values below are reported cell viability
- Test system: U2OS
- Test Description: cell viability relative to DMSO; higher = less toxic
- Condition: 72 h; 10000 nM
Note: unit % is implicit; provide only the numeric part.

Reference set, count: 3
NC(=O)c1ccc[n+]([C@@H]2O[C@H](COP(=O)([O-])OP(=O)(O)OC[C@H]3O[C@@H](n4cnc5c(N)ncnc54)[C@H](O)[C@@H]3O)[C@@H](O)[C@H]2O)c1 [nadide] : 111
Cc1cccc(C)c1NC(=O)c1ccccc1C(=O)O [ftaxilide] : 97.2
N#CCC1(n2cc(-c3ncnc4[nH]ccc34)cn2)CN(C2CCN(C(=O)c3ccnc(C(F)(F)F)c3F)CC2)C1 : 96

Here's the next entry for you.
Give its cell viability value. Item: COC(=O)c1ccccc1O [methyl-salicylate]
102
